Just for reference, patent US9006243B2 is where these values come from.

For each record, write down the corresponding MDR pEC50 (−log EC50).
Biological target: HIV strain MDR (L100I, K103N, Y181C, E138G, V179I, L2214F, V278V/I and A327A/V in HIV reverse transcriptase)
Assay: microbe, parasite or virus in culture
Assay type: cell-based, HIV-1
Settings: MDR HIV strain (multiple RT mutations); MT4 LTR-EGFP cells; three days after infection
Please state the value as a number alone, without comment.

Q: Tell me its MDR pEC50 (−log EC50) given Cc1cc(C=CC#N)cc(C)c1Nc1cc(CNCCCN2CCOCC2)nc(Nc2ccc(C#N)cc2)n1 (mixture of isomers) as the entry.
A: 5.67

Q: Tell me its MDR pEC50 (−log EC50) given Cc1cc(C=CC#N)cc(C)c1Nc1cc(CNCc2cccs2)nc(Nc2ccc(C#N)cc2)n1 (mixture of isomers) as the entry.
A: 5.48

Q: Tell me its MDR pEC50 (−log EC50) given Cc1cc(C=CC#N)cc(C)c1Nc1cc(CNCC2CC2)nc(Nc2ccc(C#N)cc2)n1 (mixture of isomers) as the entry.
A: 5.67

Q: Tell me its MDR pEC50 (−log EC50) given COCCNCc1cc(Nc2c(C)cc(C=CC#N)cc2C)nc(Nc2ccc(C#N)cc2)n1 (mixture of isomers) as the entry.
A: 5.55

Q: Tell me its MDR pEC50 (−log EC50) given Cc1cc(C=CC#N)cc(C)c1Nc1cc(CNCc2ccccn2)nc(Nc2ccc(C#N)cc2)n1 (mixture of isomers) as the entry.
A: 5.75
